Would you kindly list zone of inhibition at 200 µg/mL for each of these molecules?
test system: Aspergillus flavus; experiment: Antifungal activity against Aspergillus flavus at 200 ug/ml after 72 hrs by agar well diffusion method; type: functional; conditions: read-out: DIZ
The reply should contain only the number, in mm.

Please give the measured zone of inhibition at 200 µg/mL for this molecule: COc1ccc2c(c1)c(C=C1C(=O)OC(C)(C)OC1=O)cn2C
12

Reported zone of inhibition at 200 µg/mL, molecule CCn1cc(C=C2C(=O)OC(C)(C)OC2=O)c2cc(Br)ccc21 : ____
12

Which zone of inhibition at 200 µg/mL is listed for Cn1cc(C=C2C(=O)OC(C)(C)OC2=O)c2cc([N+](=O)[O-])ccc21 ?
12

What zone of inhibition at 200 µg/mL value was documented for this molecule, CC1(C)OC(=O)C(=Cc2c[nH]c3ccccc23)C(=O)O1 ?
13

If you can, please state the reported zone of inhibition at 200 µg/mL value of Cn1cc(C=C2C(=O)OC(C)(C)OC2=O)c2ccccc21 .
12

Reported zone of inhibition at 200 µg/mL, molecule CC1(C)OC(=O)C(=Cc2c[nH]c3ccc([N+](=O)[O-])cc23)C(=O)O1 : ____
13

====

tested on: Escherichia coli; test: Antibacterial activity against Escherichia coli ATCC 8739 at 50 ug/ml after 24 hrs by agar well diffusion method; assay type: functional; conditions: ATCC 8739, 24 h, read-out: DIZ
Field: zone of inhibition at 50 µg/mL. Provide a value for each of the molecules that follow.
Please provide the amount together with its unit, number first.

Give the measured zone of inhibition at 50 µg/mL of CCn1cc(C=C2C(=O)OC(C)(C)OC2=O)c2ccccc21 .
8 mm

# get_value(readout='zone of inhibition at 50 µg/mL', item= CCn1cc(C=C2C(=O)OC(C)(C)OC2=O)c2cc(OC)ccc21 )
6 mm

Give the measured zone of inhibition at 50 µg/mL of CN[C@@H]1[C@H](O[C@H]2[C@H](O[C@H]3[C@H](O)[C@@H](O)[C@H](N=C(N)N)[C@@H](O)[C@@H]3N=C(N)N)O[C@@H](C)[C@]2(O)C=O)O[C@@H](CO)[C@H](O)[C@H]1O .
12 mm

Reported zone of inhibition at 50 µg/mL for CC1(C)OC(=O)C(=Cc2c[nH]c3ccc([N+](=O)[O-])cc23)C(=O)O1 : what is it?
10 mm

// query zone of inhibition at 50 µg/mL value for entry CCn1cc(C=C2C(=O)OC(C)(C)OC2=O)c2cc([N+](=O)[O-])ccc21
8 mm

Give its zone of inhibition at 50 µg/mL value. Item: CCn1cc(C=C2C(=O)OC(C)(C)OC2=O)c2cc(Br)ccc21
6 mm

Entry under review: Cn1cc(C=C2C(=O)OC(C)(C)OC2=O)c2ccccc21 . Reported zone of inhibition at 50 µg/mL?
8 mm

Could you tell me which zone of inhibition at 50 µg/mL is on file for COc1ccc2c(c1)c(C=C1C(=O)OC(C)(C)OC1=O)cn2C ?
8 mm

Looking for the measured zone of inhibition at 50 µg/mL of COc1ccc2[nH]cc(C=C3C(=O)OC(C)(C)OC3=O)c2c1 , can you help?
10 mm

====

test system: Bacillus subtilis; assay: Antibacterial activity against Bacillus subtilis at 500 ug/ml after 24 hrs by agar well diffusion method; format: functional; conditions: read-out: DIZ
Record form. Attribute: zone of inhibition at 500 µg/mL. Fill in for each entry.
Give just the number in mm; leave the unit off.

Find the recorded zone of inhibition at 500 µg/mL belonging to CC1(C)OC(=O)C(=Cc2c[nH]c3ccc([N+](=O)[O-])cc23)C(=O)O1 and report it.
24

What zone of inhibition at 500 µg/mL value was documented for this compound, Cn1cc(C=C2C(=O)OC(C)(C)OC2=O)c2ccccc21 ?
23

Record request: zone of inhibition at 500 µg/mL value, item CCn1cc(C=C2C(=O)OC(C)(C)OC2=O)c2cc(OC)ccc21
21

# query: zone of inhibition at 500 µg/mL of entry COc1ccc2[nH]cc(C=C3C(=O)OC(C)(C)OC3=O)c2c1
22

====

tested on: Fusarium oxysporum; assay: Antifungal activity against Fusarium oxysporum at 100 ug/ml after 72 hrs by agar well diffusion method; assay type: functional; details: read-out: DIZ
For each entry below, report its zone of inhibition at 100 µg/mL value.
Report only the number, with the unit mm understood.

If you can, please state the reported zone of inhibition at 100 µg/mL value of CC1(C)OC(=O)C(=Cc2c[nH]c3ccc([N+](=O)[O-])cc23)C(=O)O1 .
14

Please report the recorded zone of inhibition at 100 µg/mL for CCn1cc(C=C2C(=O)OC(C)(C)OC2=O)c2cc(Br)ccc21 .
12

I am curious: what zone of inhibition at 100 µg/mL value has been reported for CCn1cc(C=C2C(=O)OC(C)(C)OC2=O)c2cc(OC)ccc21 ?
12

If you can, please state the reported zone of inhibition at 100 µg/mL value of CCn1cc(C=C2C(=O)OC(C)(C)OC2=O)c2ccccc21 .
12

So what's the measured zone of inhibition at 100 µg/mL for this one? Cn1cc(C=C2C(=O)OC(C)(C)OC2=O)c2cc(Br)ccc21
12

Could you tell me which zone of inhibition at 100 µg/mL is on file for Cn1cc(C=C2C(=O)OC(C)(C)OC2=O)c2ccccc21 ?
12

Could you tell me which zone of inhibition at 100 µg/mL is on file for CC1(C)OC(=O)C(=Cc2c[nH]c3ccccc23)C(=O)O1 ?
14

If you can, please state the reported zone of inhibition at 100 µg/mL value of CCn1cc(C=C2C(=O)OC(C)(C)OC2=O)c2cc([N+](=O)[O-])ccc21 .
12

Any idea what zone of inhibition at 100 µg/mL was measured for CC1(C)OC(=O)C(=Cc2c[nH]c3ccc(Br)cc23)C(=O)O1 ?
14

Data request, read-out zone of inhibition at 100 µg/mL, for COc1ccc2c(c1)c(C=C1C(=O)OC(C)(C)OC1=O)cn2C
12

Quick one: zone of inhibition at 100 µg/mL of Cn1cc(C=C2C(=O)OC(C)(C)OC2=O)c2cc([N+](=O)[O-])ccc21 ?
12

Consider the molecule COc1ccc2[nH]cc(C=C3C(=O)OC(C)(C)OC3=O)c2c1 and give its measured zone of inhibition at 100 µg/mL.
15

====

tested on: Bacillus subtilis; assay: Antibacterial activity against Bacillus subtilis at 500 ug/ml after 24 hrs by agar well diffusion method; assay type: functional; settings: read-out: DIZ
readout: zone of inhibition at 500 µg/mL (mm)
Write the number in mm without appending the unit.

Short answer please: zone of inhibition at 500 µg/mL, Bacillus subtilis, entry CCn1cc(C=C2C(=O)OC(C)(C)OC2=O)c2cc([N+](=O)[O-])ccc21
22

Enter reported zone of inhibition at 500 µg/mL observed with Bacillus subtilis for Cn1cc(C=C2C(=O)OC(C)(C)OC2=O)c2cc(Br)ccc21
23

For the record CCn1cc(C=C2C(=O)OC(C)(C)OC2=O)c2ccccc21 , what value of zone of inhibition at 500 µg/mL is listed for Bacillus subtilis?
22

Short answer please: zone of inhibition at 500 µg/mL, Bacillus subtilis, entry CC1(C)OC(=O)C(=Cc2c[nH]c3ccc(Br)cc23)C(=O)O1
25

Hello, I am looking for reported zone of inhibition at 500 µg/mL with Bacillus subtilis for Cn1cc(C=C2C(=O)OC(C)(C)OC2=O)c2cc([N+](=O)[O-])ccc21 . Could you help?
23

====

For each of the compounds below, state its zone of inhibition at 100 µg/mL.
test system: Aspergillus flavus; assay: Antifungal activity against Aspergillus flavus at 100 ug/ml after 72 hrs by agar well diffusion method; type: functional; conditions: read-out: DIZ
// return the numeric value with its unit appended

Which zone of inhibition at 100 µg/mL value belongs to CCn1cc(C=C2C(=O)OC(C)(C)OC2=O)c2cc([N+](=O)[O-])ccc21 ?
9 mm

I am curious: what zone of inhibition at 100 µg/mL value has been reported for CCn1cc(C=C2C(=O)OC(C)(C)OC2=O)c2cc(OC)ccc21 ?
9 mm

Recorded zone of inhibition at 100 µg/mL for CC1(C)OC(=O)C(=Cc2c[nH]c3ccc([N+](=O)[O-])cc23)C(=O)O1 , please?
10 mm

# input compound: Cn1cc(C=C2C(=O)OC(C)(C)OC2=O)c2ccccc21 ; wanted: its zone of inhibition at 100 µg/mL
9 mm

Record request: zone of inhibition at 100 µg/mL value, item CC1(C)OC(=O)C(=Cc2c[nH]c3ccccc23)C(=O)O1
10 mm

Fill blank: measured zone of inhibition at 100 µg/mL of the compound COc1ccc2c(c1)c(C=C1C(=O)OC(C)(C)OC1=O)cn2C is ____.
9 mm

Endpoint output: zone of inhibition at 100 µg/mL of COc1ccc2[nH]cc(C=C3C(=O)OC(C)(C)OC3=O)c2c1 . Value?
9 mm

Item under review: CCn1cc(C=C2C(=O)OC(C)(C)OC2=O)c2cc(Br)ccc21 . Reported zone of inhibition at 100 µg/mL?
9 mm

Looking for the measured zone of inhibition at 100 µg/mL of Cn1cc(C=C2C(=O)OC(C)(C)OC2=O)c2cc([N+](=O)[O-])ccc21 , can you help?
9 mm

What measured zone of inhibition at 100 µg/mL goes with CC1(C)OC(=O)C(=Cc2c[nH]c3ccc(Br)cc23)C(=O)O1 ?
10 mm

Consider the compound Cn1cc(C=C2C(=O)OC(C)(C)OC2=O)c2cc(Br)ccc21 and give its measured zone of inhibition at 100 µg/mL.
9 mm

Need zone of inhibition at 100 µg/mL of CCn1cc(C=C2C(=O)OC(C)(C)OC2=O)c2ccccc21 , thanks.
9 mm

The reported measurements were obtained from ChEMBL document CHEMBL2429768.
